Tested on: SK-MEL-28
Experiment: SRB colorimetric cell growth inhibition assay, SK-MEL-28
Assay type: cell-based
Settings: MEL-28; GI=growth inhibition; read-out: GI50 MEL-28
Description: The finality of these assays is to interrupt the growth of an “in vitro” tumor cell culture by means a continued exhibition of the cells to the sample to be testing. A colorimetric type of assay, using sulforhodamine B (SRB) reaction has been adapted for a quantitative measurement of cell growth and viability (following the technique described by P. A. Skehan, et al., J. Natl. Cancer Inst. 1990, 82, 1107-1112). […] The values for mean +/− SD of data from triplicate wells are calculated. […]
Assay metric: GI50 (nM)

>>> readout_number("COc1cc(-c2c3c4cc(OC)c(OC(=O)[C@H](C)N)cc4oc(=O)c3n3ccc4c(OC(=O)[C@H](C)N)c(OC)c(OC)cc4c23)ccc1OC(=O)[C@H](C)N [Compound 16]")
138
>>> readout_number("COc1cc(-c2c3n(c4c(=O)oc5cc(OC(=O)[C@@H](N)C(C)C)c(OC)cc5c24)CCc2cc(OC(=O)[C@@H](N)C(C)C)c(OC)cc2-3)ccc1OC(=O)[C@@H](N)C(C)C [Compound 37]")
623
>>> readout_number("COc1cc(-c2c3c4cc(OC)c(OC(=O)[C@@H](N)Cc5ccccc5)cc4oc(=O)c3n3ccc4c(OC(=O)[C@@H](N)Cc5ccccc5)c(OC)c(OC)cc4c23)ccc1OC(=O)[C@@H](N)Cc1ccccc1 [Compound 207]")
44.4
>>> readout_number("COc1cc2ccn3c(c(-c4ccc(OC(=O)[C@@H](N)Cc5ccccc5)c(OC)c4)c4c5cc(OC)c(OC(=O)[C@@H](N)Cc6ccccc6)cc5oc(=O)c43)c2cc1OC [Compound 13]")
3110
>>> readout_number("COc1cc2c(cc1O)oc(=O)c1c2c(-c2ccc(OC(=O)[C@H](C)N)c(OC)c2)c2c3cc(OC)c(O)cc3ccn21.Cl [Compound 238]")
52.6
>>> readout_number("COc1cc(-c2c3c4cc(OC)c(OC(=O)[C@@H](N)C(C)C)cc4oc(=O)c3n3ccc4c(OC(=O)[C@@H](N)C(C)C)c(OC)c(OC)cc4c23)ccc1OC(=O)[C@@H](N)C(C)C [Compound 35]")
54.6
>>> readout_number("COc1cc(-c2c3n(c4c(=O)oc5cc(OS(C)(=O)=O)c(OC)cc5c24)CCc2cc(OS(C)(=O)=O)c(OC)cc2-3)ccc1OS(C)(=O)=O [Compound 22]")
332
>>> readout_number("COc1cc(-c2c3n(c4c(=O)oc5cc(OC(=O)[C@@H](N)C(C)C)c(OC)cc5c24)CCc2cc(OC(=O)[C@@H](N)C(C)C)c(OC)cc2-3)ccc1OC(=O)[C@@H](N)C(C)C [Compound 135]")
1670
>>> readout_number("COc1cc(-c2c3n(c4c(=O)oc5cc(OC(C)=O)c(OC)cc5c24)CCc2cc(OC)c(OC(C)=O)cc2-3)ccc1OC(C)=O [Compound 94]")
2450
>>> readout_number("COc1cc2ccn3c(c(-c4ccc(OC(=O)[C@@H](N)C(C)C)c(OC)c4)c4c5cc(OC)c(OC(=O)[C@@H](N)C(C)C)cc5oc(=O)c43)c2cc1OC [Compound 19]")
273
>>> readout_number("COc1cc(-c2c3c4cc(OC)c(OC(=O)[C@@H](N)Cc5ccccc5)cc4oc(=O)c3n3ccc4c(OC(=O)[C@@H](N)Cc5ccccc5)c(OC)c(OC)cc4c23)ccc1OC(=O)[C@@H](N)Cc1ccccc1 [Compound 31]")
482
>>> readout_number("COc1cc2ccn3c(c(-c4ccc(OC(=O)[C@@H](N)C(C)C)c(OC)c4)c4c5cc(OC)c(OC(=O)[C@@H](N)C(C)C)cc5oc(=O)c43)c2cc1OC [Compound 14]")
1420
>>> readout_number("COc1cc(-c2c3c4cc(OC)c(OC(=O)[C@H](C)N)cc4oc(=O)c3n3ccc4cc(O)c(OC)cc4c23)ccc1O.Cl [Compound 240]")
99.7
>>> readout_number("COc1cc2ccn3c(c(-c4ccc(OC(=O)[C@@H](N)Cc5ccccc5)c(OC)c4)c4c5cc(OC)c(OC(=O)[C@@H](N)Cc6ccccc6)cc5oc(=O)c43)c2cc1OC [Compound 18]")
524
>>> readout_number("COc1cc(-c2c3c4cc(OC)c(OC(=O)[C@H](C)N)cc4oc(=O)c3n3ccc4c(OC(=O)[C@H](C)N)c(OC)c(OC)cc4c23)ccc1OC(=O)[C@H](C)N [Compound 191]")
363
>>> readout_number("COc1cc(-c2c3c4cc(OC)c(OC(=O)[C@@H](N)C(C)C)cc4oc(=O)c3n3ccc4c(OC(=O)[C@@H](N)C(C)C)c(OC)c(OC)cc4c23)ccc1OC(=O)[C@@H](N)C(C)C [Compound 190]")
9150
